- test system: human recombinant Met kinase (Homo sapiens, UniProt P08581)
- Construct: purchased Cell Signalling Technology, Beverly, Mass
- Sequence (P08581 25-1390): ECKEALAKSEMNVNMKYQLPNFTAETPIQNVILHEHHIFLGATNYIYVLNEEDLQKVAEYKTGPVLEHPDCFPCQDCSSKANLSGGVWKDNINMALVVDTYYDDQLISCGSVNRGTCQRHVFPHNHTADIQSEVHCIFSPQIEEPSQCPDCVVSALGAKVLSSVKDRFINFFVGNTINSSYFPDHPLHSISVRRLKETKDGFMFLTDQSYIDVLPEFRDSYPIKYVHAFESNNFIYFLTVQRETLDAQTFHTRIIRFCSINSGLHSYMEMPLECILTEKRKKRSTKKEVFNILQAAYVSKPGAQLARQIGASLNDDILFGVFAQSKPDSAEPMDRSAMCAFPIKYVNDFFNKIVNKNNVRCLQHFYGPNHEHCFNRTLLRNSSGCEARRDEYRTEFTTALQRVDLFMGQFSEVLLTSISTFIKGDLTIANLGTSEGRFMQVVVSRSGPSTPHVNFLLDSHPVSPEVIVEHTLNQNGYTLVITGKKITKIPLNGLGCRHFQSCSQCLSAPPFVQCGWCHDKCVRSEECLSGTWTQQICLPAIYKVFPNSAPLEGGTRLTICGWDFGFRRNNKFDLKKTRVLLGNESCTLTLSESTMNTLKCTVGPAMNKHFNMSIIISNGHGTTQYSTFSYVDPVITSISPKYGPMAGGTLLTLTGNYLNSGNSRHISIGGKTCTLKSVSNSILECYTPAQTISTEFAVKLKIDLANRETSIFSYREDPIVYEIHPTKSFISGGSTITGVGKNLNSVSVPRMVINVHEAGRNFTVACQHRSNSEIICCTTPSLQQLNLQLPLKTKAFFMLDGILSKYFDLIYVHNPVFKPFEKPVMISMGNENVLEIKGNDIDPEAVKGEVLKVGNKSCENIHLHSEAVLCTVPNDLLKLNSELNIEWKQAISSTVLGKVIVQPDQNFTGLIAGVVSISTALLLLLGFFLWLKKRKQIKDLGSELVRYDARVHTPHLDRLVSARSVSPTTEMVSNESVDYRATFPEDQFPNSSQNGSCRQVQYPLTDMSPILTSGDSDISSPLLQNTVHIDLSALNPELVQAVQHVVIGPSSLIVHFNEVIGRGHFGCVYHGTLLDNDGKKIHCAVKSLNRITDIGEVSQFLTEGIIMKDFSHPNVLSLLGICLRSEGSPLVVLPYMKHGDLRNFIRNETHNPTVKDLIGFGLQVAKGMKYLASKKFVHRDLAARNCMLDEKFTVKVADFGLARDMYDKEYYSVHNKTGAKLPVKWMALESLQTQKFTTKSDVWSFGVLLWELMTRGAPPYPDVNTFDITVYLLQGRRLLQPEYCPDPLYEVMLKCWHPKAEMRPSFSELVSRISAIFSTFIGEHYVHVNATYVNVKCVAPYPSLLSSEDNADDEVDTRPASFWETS
- test description: Colorimetric determination of c-Met kinase activity (HTScan Met Kinase Assay Kit)
- Assay type: biochemical
- condition notes: Table 4C; cells marked *: tested @ 300 nM; read-out: c-Met Enzyme % inhibition
readout name: inhibition

compound="NC(=O)c1c(F)cc(-c2ccc3nnn(Cc4ccc5ncccc5c4)c3n2)cc1F [Example 1003, 2,2,2-trifluoroacetate]" test_system="human recombinant Met kinase (Homo sapiens, UniProt P08581)" readout_name=inhibition assay_result="75 to 100%"
compound="CCNC(=O)c1ccc(-c2ccc3ncn(Cc4ccc5ncccc5c4)c3n2)cc1Cl [Example 1013]" test_system="human recombinant Met kinase (Homo sapiens, UniProt P08581)" readout_name=inhibition assay_result="< 25%"

Request: # lookup: inhibition of CNC(=O)c1ccc(-c2ccc3ncn(Cc4ccc5ncccc5c4)c3n2)cc1Cl [Example 1017]
Response: 25 to 50%

Request: Also check CCNC(=O)c1c(F)cc(-c2ccc3ncn(Cc4ccc5ncccc5c4)c3n2)cc1F [Example 1016]
Response: 25 to 50%

Request: Also check CC(c1ccc2ncccc2c1)n1cnc2ccc(-c3ccc(C(N)=O)c(Cl)c3)nc21 (centres unmarked) [Example 1021]
Response: < 25%

Request: Also check Cc1cc(-c2ccc3ncn(Cc4ccc5ncccc5c4)c3n2)ccc1C(N)=O [Example 1018]
Response: 50 to 75%

Request: Also check NC(=O)c1ccc(-c2ccc3ncn(Cc4ccc5ncccc5c4)c3n2)cc1Cl [Example 1008]
Response: 75 to 100%
